Recorded below: AC50, system Cytochrome P450 2C9 (Homo sapiens).

Solved entries (count: 3):
                            compoundsmiles  measurementlabel                  result
0  O=C(C/C=N/OCc1ccc(Cl)cc1Cl)c1ccc(Cl)cc1              AC50  17.8 µM (inconclusive)
1             c1ccc(CN2CCC3(CCNCC3)CC2)cc1              AC50  25.1 µM (inconclusive)
2         C/C(=N/Nc1ccc2ccccc2n1)c1ccccc1O              AC50  2.51 µM (inconclusive)

Exercise: For "Cc1ccc(S(=O)(=O)N/N=C/c2cccn2-c2ccc(Cl)cc2)cc1" , what is its reported AC50?
Solution: 12.6 µM (inconclusive)
